Tested on: HEp-2
Assay: Cytotoxicity against human Hep2 cells after 48 hrs by SRB assay
Assay type: functional, cell-based
Details: HEp-2, 48 h
pIC50: −log10 of the molar value.

# structureSmiles, targetSystem, readingQualifier, pIC50
measured = [
    ("C=C(C)[C@@H]1CC[C@]2(C(=O)O)CC[C@]3(C)[C@H](CC[C@@H]4[C@@]5(C)CC[C@H](OCc6cn(-c7ccc(C(=O)c8ccccc8)cc7)nn6)C(C)(C)[C@@H]5CC[C@]43C)[C@@H]12", "HEp-2", "<", 4.30),
    ("C=C(C)[C@@H]1CC[C@]2(C(=O)O)CC[C@]3(C)[C@H](CC[C@@H]4[C@@]5(C)CC[C@H](OCc6cn(-c7cccc(CO)c7)nn6)C(C)(C)[C@@H]5CC[C@]43C)[C@@H]12", "HEp-2", "=", 5.10),
    ("C=C(C)[C@@H]1CC[C@]2(C(=O)O)CC[C@]3(C)[C@H](CC[C@@H]4[C@@]5(C)CC[C@H](OCc6cn(-c7ccc(CC#N)cc7)nn6)C(C)(C)[C@@H]5CC[C@]43C)[C@@H]12", "HEp-2", "=", 4.89),
    ("C=C(C)[C@@H]1CC[C@]2(C(=O)O)CC[C@]3(C)[C@H](CC[C@@H]4[C@@]5(C)CC[C@H](OCc6cn(-c7cccc(OC)c7)nn6)C(C)(C)[C@@H]5CC[C@]43C)[C@@H]12", "HEp-2", "=", 4.54),
    ("C=C(C)[C@@H]1CC[C@]2(C(=O)O)CC[C@]3(C)[C@H](CC[C@@H]4[C@@]5(C)CC[C@H](OCc6cn(-c7cccc8c(O)cccc78)nn6)C(C)(C)[C@@H]5CC[C@]43C)[C@@H]12", "HEp-2", "=", 4.89),
]

----------
Test system: HEp-2
Experiment: Cytotoxicity against human Hep2 cells after 48 hrs by SRB assay
Format: functional, cell-based
Conditions: HEp-2, 48 h

# compound, readingQualifier, IC50 (µM)
records = [
    ("C=C(C)[C@@H]1CC[C@]2(C(=O)O)CC[C@]3(C)[C@H](CC[C@@H]4[C@@]5(C)CC[C@H](OCc6cn(-c7ccc(OC)cc7)nn6)C(C)(C)[C@@H]5CC[C@]43C)[C@@H]12", "=", 23),
    ("C=C(C)[C@@H]1CC[C@]2(C(=O)O)CC[C@]3(C)[C@H](CC[C@@H]4[C@@]5(C)CC[C@H](OCc6cn(-c7cc(OC)c(OC)c(OC)c7)nn6)C(C)(C)[C@@H]5CC[C@]43C)[C@@H]12", ">", 50),
    ("C=C(C)[C@@H]1CC[C@]2(C(=O)O)CC[C@]3(C)[C@H](CC[C@@H]4[C@@]5(C)CC[C@H](OCc6cn(-c7cc(C)cc(O)c7)nn6)C(C)(C)[C@@H]5CC[C@]43C)[C@@H]12", ">", 50),
    ("C=C(C)[C@@H]1CC[C@]2(C(=O)O)CC[C@]3(C)[C@H](CC[C@@H]4[C@@]5(C)CC[C@H](OCc6cn(-c7ccccc7CO)nn6)C(C)(C)[C@@H]5CC[C@]43C)[C@@H]12", "=", 14),
    ("C=C(C)[C@@H]1CC[C@]2(C(=O)O)CC[C@]3(C)[C@H](CC[C@@H]4[C@@]5(C)CC[C@H](OCc6cn(C7O[C@H](COC(C)=O)[C@@H](OC(C)=O)[C@H](OC(C)=O)[C@H]7OC(C)=O)nn6)C(C)(C)[C@@H]5CC[C@]43C)[C@@H]12 (some centres undefined)", ">", 50),
    ("C=C(C)[C@@H]1CC[C@]2(C(=O)O)CC[C@]3(C)[C@H](CC[C@@H]4[C@@]5(C)CC[C@H](OCc6cn(-c7ccc8c(c7)OCO8)nn6)C(C)(C)[C@@H]5CC[C@]43C)[C@@H]12", "=", 26),
    ("C=C(C)[C@@H]1CC[C@]2(C(=O)O)CC[C@]3(C)[C@H](CC[C@@H]4[C@@]5(C)CC[C@H](OCc6cn(-c7ccc(Cl)cc7)nn6)C(C)(C)[C@@H]5CC[C@]43C)[C@@H]12", "=", 44),
    ("C=C(C)[C@@H]1CC[C@]2(C(=O)O)CC[C@]3(C)[C@H](CC[C@@H]4[C@@]5(C)CC[C@H](OCc6cn(-c7cc(I)ccc7C)nn6)C(C)(C)[C@@H]5CC[C@]43C)[C@@H]12", ">", 50),
    ("C=C(C)[C@@H]1CC[C@]2(C(=O)O)CC[C@]3(C)[C@H](CC[C@@H]4[C@@]5(C)CC[C@H](O)C(C)(C)[C@@H]5CC[C@]43C)[C@@H]12 [BETULINIC ACID]", "=", 16),
    ("C=C(C)[C@@H]1CC[C@]2(C(=O)O)CC[C@]3(C)[C@H](CC[C@@H]4[C@@]5(C)CC[C@H](OCc6cn(C7O[C@H](COC(C)=O)[C@H](OC(C)=O)[C@H](OC(C)=O)[C@H]7OC(C)=O)nn6)C(C)(C)[C@@H]5CC[C@]43C)[C@@H]12 (some centres undefined)", "=", 40),
    ("C=C(C)[C@@H]1CC[C@]2(C(=O)O)CC[C@]3(C)[C@H](CC[C@@H]4[C@@]5(C)CC[C@H](OCc6cn(-c7ccc(C#N)cc7)nn6)C(C)(C)[C@@H]5CC[C@]43C)[C@@H]12", "=", 32),
    ("C=C(C)[C@@H]1CC[C@]2(C(=O)O)CC[C@]3(C)[C@H](CC[C@@H]4[C@@]5(C)CC[C@H](OCc6cn(-c7ccc([N+](=O)[O-])cc7)nn6)C(C)(C)[C@@H]5CC[C@]43C)[C@@H]12", "=", 15),
    ("C=C(C)[C@@H]1CC[C@]2(C(=O)O)CC[C@]3(C)[C@H](CC[C@@H]4[C@@]5(C)CC[C@H](OCc6cn(-c7ccccc7C#N)nn6)C(C)(C)[C@@H]5CC[C@]43C)[C@@H]12", "=", 12),
    ("C=C(C)[C@@H]1CC[C@]2(C(=O)O)CC[C@]3(C)[C@H](CC[C@@H]4[C@@]5(C)CC[C@H](OCc6cn(-c7cccc(I)c7)nn6)C(C)(C)[C@@H]5CC[C@]43C)[C@@H]12", "=", 3.8),
]
